Test system: Alternaria solani
test protocol: In vivo preventive test on Alternaria solani (tomato)
test settings: preventive spray, 500 ppm of active ingredient, evaluated 7 days after inoculation
Give Efficacy for every item shown.

// below: answered compounds
>>> result("Cn1nc(C(F)F)c(C(=O)N(Cc2ccccc2[Si](C)(C)C)C2CCC2)c1F")
"70%"
>>> result("Cn1nc(C(F)F)c(C(=O)N(Cc2c(Cl)cccc2C(F)(F)F)C2CCC2)c1F")
"95%"
>>> result("CN(Cc1ccc(Oc2ccccc2)cc1)C(=O)c1c(C(F)F)nn(C)c1F")
"89%"

For every item below, please supply its Efficacy.
1. C#CCN(Cc1ccccc1CC)C(=O)c1c(C(F)F)nn(C)c1F
2. CC(C)c1ccccc1CN(C)C(=O)c1c(C(F)F)nn(C)c1F
3. Cn1nc(C(F)F)c(C(=O)NCc2cc(Cl)ccc2Cl)c1F
4. CC(c1cc(Cl)cc(Cl)c1)N(C)C(=O)c1c(C(F)F)nn(C)c1Cl (stereo not drawn)
5. Cn1nc(C(F)F)c(C(=O)NCc2cc(Cl)cc(Cl)c2)c1Cl

## Output
["80%", "95%", "89%", "95%", "90%"]

----------
Test system: Leptosphaeria nodorum
test protocol: In vivo preventive test on Leptosphaeria nodorum (wheat)
test settings: preventive spray, 500 ppm of active ingredient, evaluated 7-9 days after inoculation
Description: In Vivo Preventive Test on Leptosphaeria nodorum (Wheat) Solvent: 49 parts by weight of N,N-dimethylacetamide Emulsifier: 1 part by weight of alkylaryl polyglycol ether To produce a suitable preparation of active compound, 1 part by weight of active compound is mixed with the stated amounts of solvent and emulsifier, and the concentrate is diluted with water to the desired concentration. […] The test is evaluated 7-9 days after the inoculation. […]
Please respond with reported Efficacy for every item in the list.
Give bare numbers, in %.

// known answers, use as guide
>>> numeric_value("CN(Cc1ncc(Cl)cc1Cl)C(=O)c1c(C(F)F)nn(C)c1F")
70
>>> numeric_value("CC(c1ncc(Cl)cc1Cl)N(C)C(=O)c1c(C(F)F)nn(C)c1F (stereo not drawn)")
95
>>> numeric_value("CC(C)c1ccccc1CN(C)C(=O)c1c(C(F)F)nn(C)c1F")
78
>>> numeric_value("Cn1nc(C(F)F)c(C(=O)N(Cc2ccc(Cl)cc2Cl)C2CCC2)c1Cl")
90

Hey, can you go through the list below and give me Efficacy for every item?
1. Cn1nc(C(F)F)c(C(=O)NC(C)(C)c2ccc(Cl)cc2Cl)c1F
2. CON(Cc1ccccc1C(C)C)C(=O)c1c(C(F)F)nn(C)c1F
3. CC(NC(=S)c1c(C(F)F)nn(C)c1Cl)c1ccc(Cl)cc1Cl (stereo not drawn)
4. CC(c1ccc(Oc2ccccc2)cc1)N(C)C(=O)c1c(C(F)F)nn(C)c1F (racemic)
5. CC(c1cc(Cl)ccc1Cl)N(C)C(=O)c1c(C(F)F)nn(C)c1F (stereo not drawn)

## Output
[90, 89, 89, 70, 70]

----------
Test system: Puccinia triticina
test protocol: In vivo preventive test on Puccinia triticina (wheat)
test settings: preventive spray, 500 ppm of active ingredient, evaluated 8 days after inoculation
Field: Efficacy. Provide a value for each of the compounds that follow.
Answers are plain numbers, in %.

Examples with answers:
>>> numeric_value("Cn1nc(C(F)F)c(C(=O)NCc2ccccc2SC(F)(F)F)c1Cl")
80
>>> numeric_value("CC(c1ncc(Cl)cc1Cl)N(C)C(=O)c1c(C(F)F)nn(C)c1F (centres unmarked)")
90
>>> numeric_value("CCN(Cc1ccccc1[Si](C)(C)C)C(=O)c1c(C(F)F)nn(C)c1F")
100
>>> numeric_value("CC(c1cc(Cl)cc(Cl)c1)N(C)C(=O)c1c(C(F)F)nn(C)c1F (centres unmarked)")
70

# evaluate next
Memo: CON(Cc1ncc(Cl)cc1Cl)C(=O)c1c(C(F)F)nn(C)c1F , reported Efficacy: 70
